Provenance of the data: paper PMC5540273

Tested on: MKNK2
Details: concentration: 1 μM,replicates: in singlicate; n = 1;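 note: KINOMEscan kinase panel screen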
Category key, based on recorded %Inh: small value: < 20%; mid value: ≥ 20% and < 40%; large value: ≥ 40%

# compound, class
records = [
    ("Cn1ccc2ncnc(Oc3ccc(NC(=O)Nc4cncc(C(F)(F)F)c4)c(Cl)c3)c21", "small value"),
    ("O=C1NCCc2[nH]c(-c3ccncc3)cc21", "mid value"),
    ("C[C@@H]1CCN(C(=O)N2CCCC2)C[C@@H]1N(C)c1ncnc2[nH]ccc12", "large value"),
    ("O=C(Nc1cccc(Oc2ccc3nccn3n2)c1)Nc1cccc(C(F)(F)F)c1", "small value"),
    ("Cn1ccc2ncnc(Oc3ccc(NC(=O)Nc4cnn(C(C)(C)C)c4)c(Cl)c3)c21", "large value"),
    ("c1ccc(Oc2ccc(Nc3ccnc4ccc(-c5ccccn5)cc34)cc2)cc1", "small value"),
    ("OCCn1cc(-c2cnc3nnn(Cc4ccc5ncccc5c4)c3n2)cn1", "small value"),
    ("CC(=O)Nc1ccc(-c2cc3ncnc(SCC(=O)O)c3s2)cc1", "small value"),
    ("O=c1[nH]cc(-c2ccc(O)cc2)c2sc(-c3ccncc3)cc12", "mid value"),
    ("COC(=O)c1cccc(NC(=O)NC2CCN(c3ccnc(Nc4cc(OC)c(OC)c(OC)c4)n3)C2)c1 (stereo not shown)", "mid value"),
    ("COc1cccc(C2=C(Nc3cccc(Cl)c3)C(=O)NC2=O)c1", "mid value"),
    ("CS(=O)(=O)Nc1ccc(-c2ccnc3[nH]ccc23)cc1", "large value"),
    ("Cn1ccc2ncnc(Oc3ccc(NC(=O)Nc4cc(C(C)(C)C)on4)c(Cl)c3)c21", "large value"),
    ("C[C@@H](Oc1cc(-n2cnc3ccc(-c4ccncc4)cc32)sc1C(N)=O)c1ccccc1Cl", "small value"),
    ("C[C@@H]1CNc2c(sc3ccc4nc(-c5ccncc5)ccc4c23)C(=O)N1", "mid value"),
    ("Cl.c1ccc(Oc2ccc(Nc3ccnc4cc(-c5ccc(CN6CCNCC6)o5)ccc34)cc2)nc1", "large value"),
    ("Cc1n[nH]c2cc(Nc3ccnc(Nc4cccc(CN5CCOCC5)c4)n3)ccc12", "large value"),
    ("CCOC(=O)N1CCC(n2cnc(-c3ccc(F)cc3)c2-c2ccnc(N)n2)CC1", "large value"),
]

----------
Tested on: MRCKA
Conditions: concentration: 1 μM,replicates: in singlicate; n = 1
// reported %Inh for each item listed

# molecule, unit-label, %Inh
records = [
    ("CN(c1ccccc1CNc1nc(Nc2ccc3c(c2)CC(=O)N3)ncc1C(F)(F)F)S(C)(=O)=O", "%", 0),
    ("C[C@@H](Oc1cc(-n2cnc3cc(-c4cnn(C)c4)ccc32)sc1C(N)=O)c1ccccc1Cl [GSK580432]", "%", 20),
    ("Cc1n[nH]c2cc(Nc3ccnc(Nc4cccc(CN5CCOCC5)c4)n3)ccc12 [GW682569]", "%", 1),
    ("FC(F)(F)c1cc(Br)cc(Nc2nccc(-c3cnn4ncccc34)n2)c1 [GW810578]", "%", 0),
    ("Cn1ccc2ncnc(Oc3ccc(NC(=O)Nc4ccnc(C(F)(F)F)c4)c(Cl)c3)c21", "%", 0),
    ("COc1ccc(Nc2nccc(N3CCC(NC(=O)c4cccc(C#N)c4)C3)n2)cc1 (centres unmarked) [GSK1379730]", "%", 0),
    ("C[C@@H]1CNc2c(sc3ccc4nc(-c5ccncc5)ccc4c23)C(=O)N1", "%", 0),
    ("CS(=O)(=O)Nc1ccc(-c2ccnc3[nH]ccc23)cc1 [GSK993273]", "%", 12),
    ("COc1cc2ncn(-c3cc(OCC4CCCCC4)c(C(N)=O)s3)c2cc1OC [GSK204559]", "%", 0),
    ("CS(=O)(=O)c1cccc(CNc2nc(Nc3ccc4c(c3)[C@@H]3C[C@@H]4CNC3=O)ncc2C(F)(F)F)c1", "%", 0),
    ("CS(=O)c1ccc(-c2coc3ccc(-c4n[nH]c(=O)o4)cc23)cc1 (centres unmarked)", "%", 4),
    ("Cn1ccc2ncnc(Oc3ccc(NC(=O)Nc4cccc(C(F)(F)F)c4)c(Cl)c3)c21", "%", 3),
    ("Cl.Cl.NC[C@H](CC1CCCCC1)NC(=O)c1ccc(-c2ccnc3[nH]ccc23)s1 [GSK1581428]", "%", 97.1),
    ("Cc1ccc(C(=O)Nc2ccc(Oc3ccc4nc(NC(=O)C5CC5)cn4c3)c(F)c2)c(=O)n1-c1ccccc1", "%", 0),
    ("CCNCC(Cc1ccccc1)NC(=O)c1cc(Br)c(-c2ccnc3[nH]ccc23)s1.Cl.Cl (centres unmarked) [GSK1383280]", "%", 64),
    ("CN1CCN(CCCNc2nccc(-c3c(-c4ccc(F)cc4)nn4cc(C(N)=O)ccc34)n2)CC1 [GW622475]", "%", 11),
    ("Cc1cccc2c(-c3ccncc3)c(-c3ccc(F)cc3)nn12.Cl [GW461487]", "%", 0),
    ("CC(=O)Nc1ccc(-c2cc3ncnc(SCC(=O)O)c3s2)cc1", "%", 0),
    ("COC(=O)Nc1nc2cc(Oc3ccc(NC(=O)Nc4cc(C(F)(F)F)ccc4Cl)cc3)ccc2[nH]1.Cl [GW697465]", "%", 5),
    ("NC(=O)Nc1sc(-c2ccc(F)cc2)cc1C(N)=O [GW789449]", "%", 0),
    ("CNC(=O)c1ccccc1Nc1nc(Nc2cccc(CS(C)(=O)=O)c2)ncc1C.O=CO [GSK1520489]", "%", 2),
    ("Cc1cccc(-c2nc(Nc3ccncc3)c3sccc3n2)n1 [GW869641]", "%", 67),
    ("c1ccc(Oc2ccc(Nc3ccnc4ccc(-c5ccccn5)cc34)cc2)cc1 [GW407034]", "%", 2),
    ("N#Cc1cccc(C(=O)NC2CCN(c3ccnc(Nc4ccc(F)cc4)n3)C2)c1 (centres unmarked) [GSK1379708]", "%", 6),
    ("O=C(Nc1n[nH]c2cc(-c3ccco3)ccc12)C1CC1 [SB-737447]", "%", 25),
    ("Cc1ccn2nc(-c3ccc(F)cc3)c(-c3ccncc3)c2c1.Cl [GW457859]", "%", 24),
]

----------
Quick list: %Inh per entry.
System: MKNK2
Conditions: concentration: 1 μM,replicates: in singlicate; n = 1

# compound, unit-label, %Inh
data = [
    ("Cl.Nc1n[nH]c2cc(-c3ccccn3)ccc12", "%", 32),
    ("C[C@@H]1CNc2c(sc3ccc4nc(-c5ccc(O)cc5)ccc4c23)C(=O)N1", "%", 34),
    ("CC(=O)Nc1nc2cnc(Nc3cc(NC(=O)c4cccc(CC(C)(C)C#N)c4)ccc3C)nc2s1", "%", 41),
    ("C[C@@H](Oc1cc(-n2cnc3cc(-c4cnn(C)c4)ccc32)sc1C(N)=O)c1ccccc1Cl", "%", 20),
    ("COc1cc2nccc(Nc3ccc(Oc4ccccc4)cc3)c2cc1OC.Cl", "%", 27),
    ("CN(c1cccc(CNc2nc(Nc3ccc4c(c3)CC(=O)N4)ncc2C(F)(F)F)c1)S(C)(=O)=O", "%", 28),
    ("Cc1ccn2nc(-c3ccc(F)cc3)c(-c3ccncc3)c2c1.Cl", "%", 0),
    ("NC(=O)c1ccc(-c2cc3ncnc(SCC(=O)O)c3s2)cc1", "%", 28),
    ("CCNCC(Cc1ccccc1)NC(=O)c1cc(Br)c(-c2ccnc3[nH]ccc23)s1.Cl.Cl (centres unmarked)", "%", 94.3),
    ("Nc1nccc(-c2ccc3c(N)n[nH]c3c2)n1", "%", 86),
    ("Cc1nnc(-c2ccc3occ(-c4ccc(S(C)=O)cc4)c3n2)o1 (centres unmarked)", "%", 0),
]

----------
Tested on: MAK
Conditions: concentration: 1 μM,replicates: in singlicate; n = 1
measured-attribute: %Inh (%)

# compound, measured-attribute, endpoint-value
measured = [
    ("Cc1ccn2nc(-c3ccc(F)cc3)c(-c3ccncc3)c2c1.Cl", "%Inh", 17),
    ("COc1ccc(Nc2nccc(N3CCC(NC(=O)c4cccc(C#N)c4)C3)n2)cc1 (stereo not drawn)", "%Inh", 26),
    ("O=C(Nc1cccc(Oc2ccc3nccn3n2)c1)Nc1cccc(C(F)(F)F)c1", "%Inh", 38),
]

----------
Tested on: ERBB4
Settings: concentration: 1 μM,replicates: in singlicate; n = 1

# compound, target-system, unit-label, %Inh
rows = [
    ("Cn1cc(-c2cccc3c(N)c(C(N)=O)nnc23)cn1", "ERBB4", "%", 0),
    ("CS(=O)(=O)Nc1ccc(-c2ccnc3[nH]ccc23)cc1 [GSK993273]", "ERBB4", "%", 0),
    ("c1ccc(Oc2ccc(Nc3ccnc4ccc(-c5ccccn5)cc34)cc2)cc1 [GW407034]", "ERBB4", "%", 88),
    ("CNC(=O)c1ccccc1Nc1nc(Nc2cccc(CS(C)(=O)=O)c2)ncc1C.O=CO [GSK1520489]", "ERBB4", "%", 98.2),
    ("NC(=O)c1ccc(-c2cc3ncnc(SCC(=O)O)c3s2)cc1", "ERBB4", "%", 10),
    ("CN(c1ccc2c(c1)nc(NCc1ccc(F)cc1)n2C)c1ccnc(Nc2ccc(CS(C)(=O)=O)cc2)n1.Cl [GW813244]", "ERBB4", "%", 19),
    ("O=C(Nc1ccc(Oc2ccc3nc(NC(=O)C4CC4)cn3n2)c(F)c1)c1cccn(-c2ccccc2)c1=O", "ERBB4", "%", 1),
    ("CCN1CCN(CCCC(=O)Nc2n[nH]c3nc(-c4ccc(O)cc4)c(Br)cc23)CC1 [SB-731579]", "ERBB4", "%", 0),
    ("Nc1nccc(-c2ccc3c(N)n[nH]c3c2)n1 [GSK1034945]", "ERBB4", "%", 25),
]
